- ASSAY COMMENT: Plasma pharmacokinetics of AP after oral administration in rats
- Format: in vivo
- TEST CONDITIONS: SD, rat, plasma, po, 120 mg/kg, rats, AP 120 mg/kg oral gavage, Control group (Table 1), mean ± SD, n = 4
QUANTITY NAME: AUC(0-t) (ng·h/mL)

{"MOLECULE": "C=C1CC[C@@H]2[C@](C)(CO)[C@H](O)CC[C@@]2(C)[C@@H]1C/C=C1/C(=O)OC[C@H]1O [AP, Andrographolide]", "UNITS LABEL": "ng·h/mL", "ENDPOINT RESULT": 2360}

----------
- ASSAY COMMENT: Plasma pharmacokinetics of AP after oral administration in mice
- Assay type: in vivo
- TEST CONDITIONS: mouse, plasma, po, 100 mg/kg, mice, AP 100 mg/kg oral gavage, Control group (Table 3), mean ± SD, n = 10
QUANTITY NAME: Tmax (min)

{"COMPOUND": "C=C1CC[C@@H]2[C@](C)(CO)[C@H](O)CC[C@@]2(C)[C@@H]1C/C=C1/C(=O)OC[C@H]1O [AP, Andrographolide]", "QUANTITY NAME": "Tmax", "ENDPOINT RESULT": 32}

----------
- ASSAY COMMENT: Plasma pharmacokinetics of AP after oral administration in rats
- Format: in vivo
- TEST CONDITIONS: Sprague-Dawley, rat, plasma, po, 120 mg/kg, rats, AP 120 mg/kg oral gavage, Inhibitor group (bromocriptine mesylate 20 mg/kg p.o. 1 week before), mean ± SD, n = 4
QUANTITY NAME: Tmax (min)

{"MOLECULE": "C=C1CC[C@@H]2[C@](C)(CO)[C@H](O)CC[C@@]2(C)[C@@H]1C/C=C1/C(=O)OC[C@H]1O [AP, Andrographolide]", "UNITS LABEL": "min", "ENDPOINT RESULT": 35}

----------
- ASSAY COMMENT: Plasma pharmacokinetics of AP after oral administration in rats
- Type: in vivo
- TEST CONDITIONS: SD, rat, plasma, po, 120 mg/kg, rats, AP 120 mg/kg oral gavage, ABX group, mean ± SD, n = 4
QUANTITY NAME: AUC(0-t) (ng·h/mL)

{"COMPOUND": "C=C1CC[C@@H]2[C@](C)(CO)[C@H](O)CC[C@@]2(C)[C@@H]1C/C=C1/C(=O)OC[C@H]1O [AP, Andrographolide]", "ENDPOINT RESULT": 4430}

----------
- ASSAY COMMENT: Plasma pharmacokinetics of AP after oral administration in mice
- Type: in vivo
- TEST CONDITIONS: mouse, plasma, po, 100 mg/kg, mice, AP 100 mg/kg oral gavage, SO4^2- group (Na2SO4 200 mg/kg p.o. 1 week before), mean ± SD, n = 10
- Protocol: Mice were orally administered APS reductase inhibitor bromocriptine mesylate (20 mg/kg, p.o.) or Na2SO4 (200 mg/kg, p.o.) or saline solution 1 week prior to AP treatment (a single dose of AP at 100 mg/kg, p.o.). […] An ACQUITY^TM UPLC-MS/MS system equipped with an ACQUITY^TM UPLC BEH C18 Column (50 × 2.1 mm I.D., 1.7 μm, Waters, Milford, MA, USA) was utilized for the quantification of AP and APM as previously described.[47] […]

{"COMPOUND": "C=C1CC[C@@H]2[C@](C)(CO)[C@H](O)CC[C@@]2(C)[C@@H]1C/C=C1/C(=O)OC[C@H]1O [AP, Andrographolide]", "UNITS LABEL": "h", "half-life": 2.22}

----------
- ASSAY COMMENT: Plasma pharmacokinetics of AP after oral administration in mice
- Type: in vivo
- TEST CONDITIONS: mouse, plasma, po, 100 mg/kg, mice, AP 100 mg/kg oral gavage, Control group (Table 3), mean ± SD, n = 10
QUANTITY NAME: AUC(0-inf) (ng·h/mL)

{"COMPOUND": "C=C1CC[C@@H]2[C@](C)(CO)[C@H](O)CC[C@@]2(C)[C@@H]1C/C=C1/C(=O)OC[C@H]1O [AP, Andrographolide]", "ENDPOINT RESULT": 772}

----------
- ASSAY COMMENT: Plasma pharmacokinetics of AP after oral administration in mice
- Assay type: in vivo
- TEST CONDITIONS: mouse, plasma, po, 100 mg/kg, mice, AP 100 mg/kg oral gavage, Inhibitor group (bromocriptine mesylate 20 mg/kg p.o. 1 week before), mean ± SD, n = 10

{"MOLECULE": "C=C1CC[C@@H]2[C@](C)(CO)[C@H](O)CC[C@@]2(C)[C@@H]1C/C=C1/C(=O)OC[C@H]1O [AP, Andrographolide]", "UNITS LABEL": "ng/mL", "Cmax": 970}

----------
- ASSAY COMMENT: Plasma pharmacokinetics of AP after oral administration in mice
- Type: in vivo
- TEST CONDITIONS: mouse, plasma, po, 100 mg/kg, mice, AP 100 mg/kg oral gavage, Inhibitor group (bromocriptine mesylate 20 mg/kg p.o. 1 week before), mean ± SD, n = 10
QUANTITY NAME: AUC(0-inf)

{"COMPOUND": "C=C1CC[C@@H]2[C@](C)(CO)[C@H](O)CC[C@@]2(C)[C@@H]1C/C=C1/C(=O)OC[C@H]1O [AP, Andrographolide]", "ENDPOINT RESULT": "1140 ng·h/mL"}

----------
- ASSAY COMMENT: Plasma pharmacokinetics of AP after oral administration in rats
- Type: in vivo
- TEST CONDITIONS: Sprague-Dawley (SD), rat, plasma, po, 120 mg/kg, rats, AP 120 mg/kg oral gavage, Control group (Table 2), mean ± SD, n = 4
- Procedure: Control and ABX rats were orally administered a single dose of AP at 120 mg/kg. Blood samples (500 μL) were collected at predetermined time intervals (0, 5, 10, 20, 30, 40, 60, 90, 120, 180, 240, 360, and 480 min). […] An ACQUITY^TM UPLC-MS/MS system equipped with an ACQUITY^TM UPLC BEH C18 Column (50 × 2.1 mm I.D., 1.7 μm, Waters, Milford, MA, USA) was utilized for the quantification of AP and APM as previously described.[47] […]

{"MOLECULE": "C=C1CC[C@@H]2[C@](C)(CO)[C@H](O)CC[C@@]2(C)[C@@H]1C/C=C1/C(=O)OC[C@H]1O [AP, Andrographolide]", "UNITS LABEL": "ng·h/mL", "AUC(0-inf)": 3690}

----------
- ASSAY COMMENT: Plasma pharmacokinetics of AP after oral administration in mice
- Format: in vivo
- TEST CONDITIONS: mouse, plasma, po, 100 mg/kg, mice, AP 100 mg/kg oral gavage, Control group (Table 3), mean ± SD, n = 10
QUANTITY NAME: AUC(0-t) (ng·h/mL)

{"MOLECULE": "C=C1CC[C@@H]2[C@](C)(CO)[C@H](O)CC[C@@]2(C)[C@@H]1C/C=C1/C(=O)OC[C@H]1O [AP, Andrographolide]", "ENDPOINT RESULT": 646}

Origin of the recorded values: paper PMC11404609
